- system under test: Proteasome subunit beta (Trypanosoma cruzi)
- Sequence (whole entry): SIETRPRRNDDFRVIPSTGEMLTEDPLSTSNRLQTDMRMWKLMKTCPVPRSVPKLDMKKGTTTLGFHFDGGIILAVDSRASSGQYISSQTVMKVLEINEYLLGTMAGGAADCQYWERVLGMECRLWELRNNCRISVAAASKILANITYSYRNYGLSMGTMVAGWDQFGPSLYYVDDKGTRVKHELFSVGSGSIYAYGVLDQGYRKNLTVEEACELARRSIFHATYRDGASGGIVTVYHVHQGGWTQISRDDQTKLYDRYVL
- assay details: Trypanosoma cruzi proteasome chymotrypsin-like activity (TcProtChymo) assay.
- Type: functional
- Parameters: scale not given: in the data most compounds retested in dose-response had high values
- experimental conditions: 9.37 µM
# note: boundary value 10% maps to not met; Percent Effect below it maps to met

Example entries and their recorded answers appear below.
In [3]: df
Out[3]:
                                   compound                         system_under_test    class
0  CCc1ccccc1C(=O)N1CCN(S(C)(=O)=O)[C@@H](C)C1  Proteasome subunit beta (Trypanosoma cruzi)      met
1    CN(Cc1ccco1)Cc1ccccc1CNC(=O)c1cc[nH]n1  Proteasome subunit beta (Trypanosoma cruzi)  not met
2  O=S1(=O)C[C@@H]2[C@H](C1)N(Cc1cc(Cl)cc(Cl)c1)CCN2CC1CC1  Proteasome subunit beta (Trypanosoma cruzi)  not met
3  O=C1C[C@H]2[C@@H](CCN2C(=O)c2ccccc2)N1CCN1CCOCC1  Proteasome subunit beta (Trypanosoma cruzi)      met
4  O=C(N1CCOCC1)[C@@]12CCO[C@@H]1CCN(CCN1CCCCC1)C2  Proteasome subunit beta (Trypanosoma cruzi)  not met
5  CCn1cc(CN(C)S(=O)(=O)c2ccc(NC(C)=O)cc2)cn1  Proteasome subunit beta (Trypanosoma cruzi)      met
6  Cc1nc(C2CCCN(C(=O)c3scnc3C)C2)no1 (stereo not drawn)  Proteasome subunit beta (Trypanosoma cruzi)  not met
7  CN(CCCOc1ccc(F)cc1)Cc1nc2c(cnn2C)c(=O)[nH]1  Proteasome subunit beta (Trypanosoma cruzi)  not met
8                   O=C(Cn1cc(I)cn1)N1CCCC1  Proteasome subunit beta (Trypanosoma cruzi)      met
9             Cc1ccc2nc(C3CCN(CCO)CC3)nn2c1  Proteasome subunit beta (Trypanosoma cruzi)      met

Problem: Does the reported Percent Effect of Cc1cc(C)cc(NS(=O)(=O)c2cc3c(c(C(=O)O)c2)OCCO3)c1 stay below 10%?
Solution: not met

Problem: Consider the compound CC(C(=O)N1CCCN(Cc2ccc(C#N)cc2)CC1)n1ccnc1 (stereo not drawn) . Is its Percent Effect strictly less than 10%?
Solution: not met

Problem: Field: below-cutoff. Rule: recorded Percent Effect strictly less than 10%. Subject: Cn1cnc2c1CCN(Cc1nc(-c3ccsc3)no1)C2
Solution: met

Problem: hey, is Percent Effect for Cn1c(Nc2cn[nH]c2)c(C#N)c(=O)n(C)c1=O lower than 10% or not?
Solution: not met

Problem: is_below(Percent Effect, 10%) for Cn1cccc1C(=O)N[C@@H]1CN(CC2CC2)[C@@H]2COC[C@@H]21 ?
Solution: met

Problem: Lab note: Percent Effect threshold 10%. Does this compound come in strictly under it? NCC1CN(c2nc(-c3ccccc3)nc3c2CCNCC3)CCO1 (stereo not drawn)
Solution: met
